B1: HEEH_KT_rd6_3632 (parent)
chain: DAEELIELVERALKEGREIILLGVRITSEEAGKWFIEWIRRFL

variants of: B1; assay: folding stability dG (cDNA display proteolysis); higher = more stable; conditions: PBS, room temperature

| MUTATION ID | MEASUREMENT UNITS | folding stability dG |
| --- | --- | --- |
| S28M | kcal/mol | 3.33 |
| L21G | kcal/mol | 2.83 |
| G16T | kcal/mol | 3.36 |
| R11N | kcal/mol | 3.51 |
| E37W | kcal/mol | 3.88 |
| E4G | kcal/mol | 3.92 |
| G23A | kcal/mol | 3.67 |
| T27W | kcal/mol | 3.95 |
| G23C | kcal/mol | 3.82 |
| A2N | kcal/mol | 3.4 |
| T27H | kcal/mol | 3.79 |
